# SUBJECT OF TEST: human GABAA receptors composed of the α1β2γ2 subunits (Homo sapiens (Human), UniProt P14867+P18507+P47870)
# Sequence (P14867 28-456 limits assumed): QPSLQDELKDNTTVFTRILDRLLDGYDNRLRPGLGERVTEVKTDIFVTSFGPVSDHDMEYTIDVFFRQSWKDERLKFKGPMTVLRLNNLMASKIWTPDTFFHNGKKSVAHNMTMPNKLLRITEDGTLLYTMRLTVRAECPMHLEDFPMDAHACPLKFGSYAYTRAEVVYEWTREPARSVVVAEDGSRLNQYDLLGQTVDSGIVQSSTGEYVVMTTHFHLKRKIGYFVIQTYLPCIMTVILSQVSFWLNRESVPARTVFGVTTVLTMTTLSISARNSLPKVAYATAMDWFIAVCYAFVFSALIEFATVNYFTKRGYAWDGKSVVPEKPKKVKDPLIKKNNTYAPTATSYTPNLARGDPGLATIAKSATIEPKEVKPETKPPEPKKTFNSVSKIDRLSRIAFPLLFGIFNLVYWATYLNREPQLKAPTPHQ
# Sequence (P47870 25-512 limits assumed): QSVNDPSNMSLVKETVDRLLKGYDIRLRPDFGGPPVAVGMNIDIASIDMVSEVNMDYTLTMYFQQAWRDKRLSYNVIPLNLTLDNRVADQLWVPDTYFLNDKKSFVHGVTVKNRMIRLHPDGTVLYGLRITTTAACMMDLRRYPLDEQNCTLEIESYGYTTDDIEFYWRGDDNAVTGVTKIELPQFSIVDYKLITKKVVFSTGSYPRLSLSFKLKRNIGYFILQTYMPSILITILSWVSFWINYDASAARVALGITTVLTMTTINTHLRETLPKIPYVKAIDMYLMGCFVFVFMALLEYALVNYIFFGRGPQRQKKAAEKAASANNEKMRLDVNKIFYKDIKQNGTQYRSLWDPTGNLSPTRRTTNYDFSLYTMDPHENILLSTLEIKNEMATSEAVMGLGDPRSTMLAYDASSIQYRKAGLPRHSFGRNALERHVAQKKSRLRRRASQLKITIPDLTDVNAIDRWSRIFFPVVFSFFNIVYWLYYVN
# Sequence (P18507 40-475 limits assumed): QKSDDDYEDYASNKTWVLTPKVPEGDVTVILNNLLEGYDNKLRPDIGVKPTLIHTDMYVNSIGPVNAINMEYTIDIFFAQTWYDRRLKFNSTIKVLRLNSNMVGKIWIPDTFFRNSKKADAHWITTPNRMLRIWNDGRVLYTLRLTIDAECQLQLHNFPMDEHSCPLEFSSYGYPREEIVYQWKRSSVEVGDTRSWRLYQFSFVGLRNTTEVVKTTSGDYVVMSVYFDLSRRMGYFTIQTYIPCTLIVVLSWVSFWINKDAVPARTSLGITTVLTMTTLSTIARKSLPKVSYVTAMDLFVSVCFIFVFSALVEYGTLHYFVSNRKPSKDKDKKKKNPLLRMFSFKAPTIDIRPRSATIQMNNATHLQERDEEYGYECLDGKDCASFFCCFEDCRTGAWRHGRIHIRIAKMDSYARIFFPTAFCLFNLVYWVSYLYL
# ASSAY REMARKS: α1β2γ2 SyncroPatch automated patch clamp assay
# RECORDED CONDITIONS: HEK cells, potentiation of submaximal GABA current, clamped at −120 mV
# Experimental: The SyncroPatch 384PE (Nanion, Germany) automated patch clamp platform was used to obtain recordings from human embryonic kidney cells stably expressing human GABAA receptors composed of the α1β2γ2 and α4β3δ subunits. […] Compound effect was determined by dividing peak current amplitude after GABA+compound by peak current amplitude after GABA alone. EC50 and Emax values were determined from average values for each concentration.
PARAMETER: EC50

{"SMILES STRUCTURE": "CC[C@@]1(O)CC[C@@]2(C)[C@H](CC[C@@H]3[C@@H]2CC[C@]2(C)[C@@H]([C@@H](C)Cn4ccc(C#N)n4)CC[C@@H]32)C1", "OBSERVED MEASUREMENT": "< 200 nM"}
{"SMILES STRUCTURE": "CCOC[C@@]1(O)CC[C@@]2(C)[C@H](CC[C@@H]3[C@@H]2CC[C@]2(C)[C@@H]([C@@H](C)Cn4nccc4C#N)CC[C@@H]32)C1", "OBSERVED MEASUREMENT": "< 200 nM"}
{"SMILES STRUCTURE": "CCOC[C@@]1(O)CC[C@H]2[C@H](CC[C@@H]3[C@@H]2CC[C@]2(C)[C@@H]([C@H](C)Cn4nccc4C#N)CC[C@@H]32)C1", "OBSERVED MEASUREMENT": "< 200 nM"}
{"SMILES STRUCTURE": "CCC[C@@]1(O)CC[C@H]2[C@H](CC[C@@H]3[C@@H]2CC[C@]2(C)[C@@H]([C@@H](C)Cn4nnc(C)n4)CC[C@@H]32)C1", "OBSERVED MEASUREMENT": "200 to 1000 nM"}
{"SMILES STRUCTURE": "CC(C)C[C@@]1(O)CC[C@H]2[C@H](CC[C@@H]3[C@@H]2CC[C@]2(C)[C@@H]([C@@H](C)Cn4cc(C#N)cn4)CC[C@@H]32)C1", "OBSERVED MEASUREMENT": "≥ 1000 nM"}
{"SMILES STRUCTURE": "COC[C@@]1(O)CC[C@H]2[C@H](CC[C@@H]3[C@@H]2CC[C@]2(C)[C@@H]([C@@H](C)Cc4ccc(C(F)(F)F)nc4)CC[C@@H]32)C1", "OBSERVED MEASUREMENT": "< 200 nM"}
{"SMILES STRUCTURE": "CCOC[C@@]1(O)CC[C@H]2[C@H](CC[C@@H]3[C@@H]2CC[C@]2(C)[C@@H]([C@@H](C)N(C)S(=O)(=O)c4cccc(C#N)n4)CC[C@@H]32)C1", "OBSERVED MEASUREMENT": "200 to 1000 nM"}
{"SMILES STRUCTURE": "Cc1cnc(C[C@@H](C)[C@H]2CC[C@H]3[C@@H]4CC[C@@H]5C[C@](C)(O)CC[C@@H]5[C@H]4CC[C@]23C)nc1", "OBSERVED MEASUREMENT": "200 to 1000 nM"}
{"SMILES STRUCTURE": "CCOC[C@@]1(O)CC[C@H]2[C@H](CC[C@@H]3[C@@H]2CC[C@]2(C)[C@@H]([C@H](C)Cn4ccc(C#N)n4)CC[C@@H]32)C1", "OBSERVED MEASUREMENT": "200 to 1000 nM"}
{"SMILES STRUCTURE": "C[C@H](Cc1nccc(C#N)n1)[C@H]1CC[C@H]2[C@@H]3CC[C@@H]4C[C@](C)(O)CC[C@@H]4[C@H]3CC[C@]12C", "OBSERVED MEASUREMENT": "200 to 1000 nM"}
{"SMILES STRUCTURE": "CC[C@@]1(O)CC[C@H]2[C@H](CC[C@@H]3[C@@H]2CC[C@]2(C)[C@@H]([C@H](C)Cn4cc(C#N)cn4)CC[C@@H]32)C1", "OBSERVED MEASUREMENT": "200 to 1000 nM"}
